Target: Chromo domain-containing protein 1 (Saccharomyces cerevisiae (strain ATCC 204508 / S288c) (Baker's yeast))
Assay: ScCHD-1 Enzyme Inhibition Assay
Assay type: functional
Set-up: scale not given: in the data most compounds retested in dose-response had high values
Conditions: 30 µM
measurement.label: Percent Effect (%)

INSERT INTO measurements (compound, uom, value_measured) VALUES
  ('CC(C)c1nnc2n1CCN(C(=O)c1ccc(CN(C)C)cc1)C2', '%', -18.4),
  ('COc1cccc(COCC(=O)N2CCCC(c3nncn3C)C2)c1 (stereo not drawn)', '%', -11.8),
  ('CCn1cc2c(n1)CN(C(=O)c1ccncc1)CC2COCC1CC1 (stereo not drawn)', '%', -6.15),
  ('CS(=O)(=O)NC1CCN(C(=O)NCCNc2ccccn2)CC1', '%', -1.89),
  ('COc1ncccc1C(=O)N1CCN(C(=O)Cc2ccccn2)CC1', '%', -20.3),
  ('Cc1nc(C(=O)N2CCCC(n3cncn3)C2)cs1 (stereo not drawn)', '%', 0.874),
  ('CCCn1c(C)c(CC(=O)NC)c2c1CC(C)(C)CC2=O', '%', 2.86),
  ('Cc1ccc(C(=O)N2CCN(C(=O)NC(C)Cn3ccnc3)CC2)o1 (stereo not drawn)', '%', -13.5),
  ('O=C1CCC2(CCN(Cc3cc(F)cc(F)c3)CC2)CN1CCO', '%', -0.52),
  ('CC(C)CCN1CCNC(=O)C1CC(=O)N1CCc2sccc2C1 (stereo not drawn)', '%', 1.1),
  ('Cc1[nH]c(=O)[nH]c(=O)c1CN1CCCC(CCc2c(F)cccc2F)C1 (stereo not drawn)', '%', -1.15),
  ('COc1ccnc(N2CCN(CC(=O)N3CCOCC3)CC2)n1', '%', -6.56),
  ('Cc1csc(CNC(=O)NCC(O)c2cccc(Cl)c2)n1 (stereo not drawn)', '%', -0.155),
  ('CN(C(=O)Cn1nc(-c2ccc(F)cc2)ccc1=O)C1CCS(=O)(=O)C1 (stereo not drawn)', '%', -3.65),
  ('Cc1csc(N2CCCN(C(=O)C3(C#N)CCCCC3)CC2)n1', '%', 10.4),
  ('CCn1cnnc1CNC(=O)c1ccc(Cl)cc1F', '%', -13.8),
  ('Cc1nc(CN2CCOC(CN(C)c3cccnn3)C2)cs1 (stereo not drawn)', '%', 0.286),
  ('CCCc1n[nH]c(C2CN(CCNS(=O)(=O)CC)CCO2)n1 (stereo not drawn)', '%', -20.1),
  ('Cc1nnc2n1CCN(Cc1csc(Cc3ccccc3)n1)C2', '%', -1.48),
  ('COc1c(C2CCCN2C(=O)c2ccc3cc[nH]c3c2)c(C)nn1C (stereo not drawn)', '%', -21.5),
  ('COCCN1CCC(Cc2cncc(-c3ccc(C(=O)O)cc3)n2)C1 (stereo not drawn)', '%', -3.54),
  ('Cn1cc(CNC2CCCN(Cc3noc(C4CC4)n3)C2)cn1 (stereo not drawn)', '%', -11.8),
  ('COC(=O)CS(=O)(=O)CCC(=O)N1CCCC1c1ccsc1 (stereo not drawn)', '%', -2.96);

Ref: ChEMBL document CHEMBL3988442
